- test: in vitro
- Format: in vitro ADME, human
- applied.conditions: human, serum, Table 5; human serum, 37° C.; read-out: Serum Half-life (converted)
measured.attribute: half-life (h)
The response must be a number in h with no trailing unit.

Exercise: GET /values?readout=half-life&item= C[C@]12CCC(=O)C(OC(=O)OCC[N+](C)(C)C)=C1CC[C@@H]1[C@@H]2CC[C@]2(C)C(=O)CC[C@@H]12
Key: 0.433

Exercise: GET /values?readout=half-life&item= C[C@H]1O[C@@H](O[C@H]2[C@@H](O)C[C@H](O[C@H]3[C@@H](O)C[C@H](O[C@H]4CC[C@@]5(C)[C@H](CC[C@@H]6[C@@H]5C[C@@H](OC(=O)OC[N+](C)(C)CCCCCC(=O)O)[C@]5(C)[C@@H](C7=CC(=O)OC7)CC[C@]65O)C4)O[C@@H]3C)O[C@@H]2C)C[C@@H]2OC(=O)O[C@@H]21
Key: 0.8

Exercise: GET /values?readout=half-life&item= CC(CCCC(=O)OC1C(O)CC(OC2C(O)CC(OC3C(O)CC(OC4CCC5(C)C(CCC6C5CC(O)C5(C)C(C7=CC(=O)OC7)CCC65O)C4)OC3C)OC2C)OC1C)OC(=O)CCC[N+](C)(C)C (centres unmarked)
Key: 14

Exercise: GET /values?readout=half-life&item= CN(Cc1cnc2nc(N)nc(N)c2n1)c1ccc(C(=O)N[C@@H](CCC(=O)OCOC(=O)CCC[N+](C)(C)C)C(=O)OCOC(=O)CCC[N+](C)(C)C)cc1
Key: 1.8

Exercise: GET /values?readout=half-life&item= CN(Cc1cnc2nc(N)nc(N)c2n1)c1ccc(C(=O)N[C@@H](CCC(=O)OCC[N+](C)(C)C)C(=O)OCC[N+](C)(C)C)cc1
Key: 14

====

- test: in vitro
- Format: in vitro ADME, human
- applied.conditions: human, serum, Table 4; human serum, 37° C.; read-out: In vitro Half-Life (converted)
// f strictly below 4 min in half-life; t otherwise

Exercise: Given the entry CC(=O)O[C@H](CC(=O)NCCCCCC(=O)OC(C)Cc1ccc([N+](=O)[O-])cc1)C[N+](C)(C)C (stereo partly drawn) , answer whether its half-life meets or surpasses 4 min.
Key: t

Exercise: Given the entry C[N+](C)(C)CCOC(=O)OC1CCC(c2ccc([N+](=O)[O-])cc2)CC1 (stereo not drawn) , answer whether its half-life meets or surpasses 4 min.
Key: f

Exercise: Given the entry CC(=O)O[C@H](CC(=O)NCCc1ccc([N+](=O)[O-])cc1)C[N+](C)(C)C , answer whether its half-life meets or surpasses 4 min.
Key: t

Exercise: Given the entry CC(=O)O[C@H](CC(=O)NCCC(=O)OCCc1ccc([N+](=O)[O-])cc1)C[N+](C)(C)C , answer whether its half-life meets or surpasses 4 min.
Key: t

Exercise: Given the entry CC(=O)O[C@H](CC(=O)NCCCCCC(=O)OCCc1ccc([N+](=O)[O-])cc1)C[N+](C)(C)C , answer whether its half-life meets or surpasses 4 min.
Key: f

Exercise: Given the entry O=C(CCCCCN1CCOCC1)OCCc1ccc([N+](=O)[O-])cc1 , answer whether its half-life meets or surpasses 4 min.
Key: f

Exercise: Given the entry CC(=O)O[C@H](CC(=O)OCCCCCCOC(=O)O[C@H]1CC[C@H]2[C@@H]3CCc4cc(O)ccc4[C@H]3CC[C@]12C)C[N+](C)(C)C , answer whether its half-life meets or surpasses 4 min.
Key: t

Exercise: Given the entry C[N+](C)(C)CCOC(=O)OCCc1ccc([N+](=O)[O-])cc1 , answer whether its half-life meets or surpasses 4 min.
Key: f

Exercise: Given the entry CC(=O)O[C@H](CC(=O)NCCCCCCOC(=O)OC(C)Cc1ccc([N+](=O)[O-])cc1)C[N+](C)(C)C (stereo partly drawn) , answer whether its half-life meets or surpasses 4 min.
Key: f

// data source = patent US5607691A
